The reported numbers originate from patent US20260242735A1.

Field: Mean % WT Binding. Provide a value for each of the binders that follow.
- assayed_target: human CD33 D18N (human, UniProt P20138 19-364)
- Sequence (P20138 18-364 D18N limits assumed): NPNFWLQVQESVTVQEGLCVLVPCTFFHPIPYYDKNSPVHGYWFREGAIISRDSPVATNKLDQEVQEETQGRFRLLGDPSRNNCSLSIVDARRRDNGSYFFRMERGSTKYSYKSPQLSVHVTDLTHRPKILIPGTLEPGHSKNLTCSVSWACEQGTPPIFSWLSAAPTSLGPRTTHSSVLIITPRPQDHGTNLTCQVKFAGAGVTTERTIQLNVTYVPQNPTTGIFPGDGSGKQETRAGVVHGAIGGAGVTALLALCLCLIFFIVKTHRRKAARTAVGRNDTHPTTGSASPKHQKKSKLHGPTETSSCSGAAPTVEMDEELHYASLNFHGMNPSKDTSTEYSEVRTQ
- experiment_notes: flow cytometry, mutant on cells, IgG
Report the value in % WT binding with no unit label.

Bench note: what Mean % WT Binding did Refmab #2 (antibody, human IgG1, V domains shown, Tested in IgG format; human IgG1 Fc silent (PG-LALA)) VH: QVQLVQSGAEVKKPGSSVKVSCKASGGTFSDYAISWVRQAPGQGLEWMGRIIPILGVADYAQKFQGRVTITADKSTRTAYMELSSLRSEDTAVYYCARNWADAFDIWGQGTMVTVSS VL: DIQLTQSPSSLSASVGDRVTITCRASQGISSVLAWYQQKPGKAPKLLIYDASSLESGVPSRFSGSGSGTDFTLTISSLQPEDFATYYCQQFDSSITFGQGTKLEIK show?
59.2

Bench note: what Mean % WT Binding did Refmab #4 (antibody, human IgG1, V domains shown, Tested in IgG format; human IgG1 Fc silent (PG-LALA)) VH: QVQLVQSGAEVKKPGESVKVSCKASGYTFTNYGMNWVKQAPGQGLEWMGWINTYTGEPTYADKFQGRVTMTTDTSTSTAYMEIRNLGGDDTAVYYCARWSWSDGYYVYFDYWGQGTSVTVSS VL: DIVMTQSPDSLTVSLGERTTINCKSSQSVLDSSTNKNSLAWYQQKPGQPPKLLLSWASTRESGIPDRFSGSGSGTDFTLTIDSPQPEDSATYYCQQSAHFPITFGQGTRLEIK show?
76

Bench note: what Mean % WT Binding did Refmab #1 (antibody, human IgG1, V domains shown, Tested in IgG format; human IgG1 (Absolute Antibody hP67.6, Cat. No. Ab00283-10.0); also called hP67.6) VH: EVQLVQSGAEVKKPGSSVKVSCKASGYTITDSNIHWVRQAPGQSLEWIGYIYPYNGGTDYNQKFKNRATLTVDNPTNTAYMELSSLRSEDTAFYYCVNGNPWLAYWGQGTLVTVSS VL: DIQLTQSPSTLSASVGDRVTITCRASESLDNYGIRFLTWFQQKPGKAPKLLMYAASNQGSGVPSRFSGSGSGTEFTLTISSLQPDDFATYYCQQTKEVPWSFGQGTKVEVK show?
69.6

Bench note: what Mean % WT Binding did Refmab #3 (antibody, human IgG1, V domains shown, Tested in IgG format; human IgG1 Fc silent (PG-LALA)) VH: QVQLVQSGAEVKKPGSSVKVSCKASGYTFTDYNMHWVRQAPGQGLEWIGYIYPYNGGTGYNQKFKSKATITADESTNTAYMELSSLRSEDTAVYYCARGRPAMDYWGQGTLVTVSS VL: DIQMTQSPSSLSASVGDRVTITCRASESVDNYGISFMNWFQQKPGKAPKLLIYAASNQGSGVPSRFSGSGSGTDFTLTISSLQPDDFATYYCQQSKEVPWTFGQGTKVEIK show?
71.5
